- Reported Conditions: 298.15 K; 101.33 kPa; Liquid
Numbers after ± are expanded uncertainties.
# mass density values compiled below

| Entry Smiles | mass density |
| --- | --- |
| CCN(CC)CC | 722.56 ± 0.41 kg/m3 |
| CCCCO | 805.74 ± 0.35 kg/m3 |
| CCO | 785.07 ± 0.33 kg/m3 |
| CCCCCC | 654.9 ± 0.47 kg/m3 |
